Measured IC50, IL-23 stimulated IL-17 production from mouse splenocytes values are reported for all entries that follow.
# target-or-test-system: T1, recombinant human IL-23 (human, UniProt P29460 23-328)
# T1 sequence 1: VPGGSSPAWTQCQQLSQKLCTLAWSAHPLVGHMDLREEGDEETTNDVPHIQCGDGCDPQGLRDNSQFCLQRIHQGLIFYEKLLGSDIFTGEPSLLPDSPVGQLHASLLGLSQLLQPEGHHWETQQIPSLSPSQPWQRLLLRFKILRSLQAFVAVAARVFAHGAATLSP
# T1 sequence 2: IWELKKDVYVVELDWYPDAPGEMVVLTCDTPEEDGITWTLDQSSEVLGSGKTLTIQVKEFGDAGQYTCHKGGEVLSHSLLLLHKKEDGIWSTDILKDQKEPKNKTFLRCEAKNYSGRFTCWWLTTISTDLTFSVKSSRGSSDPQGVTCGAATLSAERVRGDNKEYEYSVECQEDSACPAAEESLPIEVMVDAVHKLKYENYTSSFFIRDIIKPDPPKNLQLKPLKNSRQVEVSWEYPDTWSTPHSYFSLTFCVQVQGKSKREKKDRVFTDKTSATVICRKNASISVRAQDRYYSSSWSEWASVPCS
# assay-name: cell-based or functional assay
measurement-kind: IC50, IL-23 stimulated IL-17 production from mouse splenocytes

binder	value
27G8 (antibody, V domains shown, Mouse monoclonal antibody from hybridoma; also called 27G8vk; 27G8vh) VH: QVQLQQSDAELVKPGASVKISCKVSGYTFTDHTIHWMKQRPEQGLEWIGYIYPRDGYPKFNEKFKGKATLTADKSSSTAYMQLNSLTSEDSAVYFCARRPPYYAMDYWGQGTSVAVSS VL: DIVLTQSPASLAVSLGQRATISCRASKSVSTSGYSYIHWYQQKPGQPPKFLIYLASNLDSGVPARFSGSGSGTDFTLNIHPVEEEDAATYYCQHSRELPYTFGGGTKLEIK	0.235 nM
18D3 (antibody, V domains shown, Mouse monoclonal antibody from hybridoma; also called 18D3vk; 18D3vh) VH: EVQLQQSGPELVKPGASVKMSCKASGYTFTRYLIHWVKQKPGQGLEWIGYINPYNDGTKYNEKFKGKATLTSDKSSSTAYMELSSLTSEDSAVYYCTSNWDLDYWGQGTTLTVSS VL: DIVMTQSPATLSVTPGDRVSLSCRASQSISDYLYWYQQKSHESPRLLIKFASQSISGIPSRFTGSGSGSDFTLSIDSVEPDDVGVFFCQNGHSFPFTFGGGTKLEIK	0.234 nM
18C4 (antibody, V domains shown, Mouse monoclonal antibody from hybridoma; also called 18C4vk; 18C4vh) VH: EVQLQQSGPEVVKPGASVKMSCKASGYTFTSSVIHWVKQKAGQGLEWIGYINPYNDGTKYNEKFKGKATLTSDRSSSTAYMELSSLTSEDSAVYYCTRRLDEAYWGQGTLVTVSA VL: DIVMTQSPATLSVTPGDRVSLSCRASQSISEYLHWYQQKSHESPRLLIKYASQSISGIPSRFSGSGSGSDFTLSINSVEPEDVGVYYCQNGHSFPFTFGSGTKLEIK	0.471 nM
73H10 (antibody, V domains shown, Mouse monoclonal antibody from hybridoma; also called 73H10Vk; 73H10VH) VH: EVQLQQSGPELVKPGASVKMSCKASGYTFTRYVMHWVKQKPGQGLEWIGYINPYNDVTKYNEKFKGKATLTSDRSSSTAYMKLSSLTSEDSAVYYCARNWDVPYWGQGTLITVSA VL: DIQMTQSPVFLSASVGETVTITCRASENIDSYLAWYQQKQGKSPQLLVFAARNLADGVPSRFSGSGSGTQYSLKINRMQSEDVARYYCQHYYSTPFTFGSGTKLEIE	1.41 nM
9D12 (antibody, V domains shown, Mouse monoclonal antibody from hybridoma; also called 9D12-Vk; 9D12VH) VH: QVQLKESGPVLVAPSQSLSITCTVSGFSLNNFAISWVRQPPGKGLEWLGAIWTGGGTNYNSALKSRLSISKDNSKSQVFLKMNSLQTDDTARYYCVRKDYSYGGAMDYWGQGTSVTVSS VL: DIALTQSPASLAVSLGQRATISCRASETINFYGTSFMHWYQQKPGQSPKLLIYRASNLESGIPARFSGSGSRTDFTLTINPVEADDVATYYCQQTNEDPYTFGGGTKLEIK	0.059 nM
